# system.tested: Aβ40 fibrils (Homo sapiens)
# Sequence (P05067 672-711 limits assumed): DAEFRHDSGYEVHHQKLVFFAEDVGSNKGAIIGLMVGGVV
# procedure.summary: In vitro fluorometric binding assay, Aβ40 fibrils
# experimental.conditions: average±SE; concentration giving half of maximum fluorescence intensity
This section presents molecules with their documented EC50 values.
property.name: EC50 (nM)

[
  {
    "molecule": "CC[n+]1c(/C=C/C=C/c2ccc(N(C)C)cc2)sc2ccccc21 [PBB5]",
    "measure.unit": "nM",
    "val": 1220
  },
  {
    "molecule": "CN(C)c1ccc(/C=C/C=C/c2nc3ccccc3s2)cc1 [PBB1]",
    "measure.unit": "nM",
    "val": 4110
  }
]
